The reported measurements were obtained from PubChem BioAssay AID1345085.

Test system: Jar
Assay: Confirmatory qHTS for gynecologic anti-cancer compounds from libraries of approved drugs and bioactive compounds; also: nearly all actives have a fitted effect of over 55% in size
Settings: gynecologic cancer cell panel viability, ATPlite luminescence, 48 h; series mostly up to 57.6 µM
Records with an inconclusive call do not appear. The source made the active and inactive calls. Calls follow the shape of the dose curve; as a rule, active = well fitted cell-killing curve with a large enough effect; inconclusive = small, poorly fitted or top-dose-only effect, or effect the other way; inactive = no such curve, though single readings can be large or run the other way.
Please reply with one of these outcomes: active, inactive

Worked set:
• O=C(c1ccc(F)c(F)c1Nc1ccc(I)cc1F)N1CC(O)([C@@H]2CCCCN2)C1 = active
• FC(F)(F)c1ccc(/C=C/c2nc(COc3ccc(CCCCn4ccnn4)cc3)co2)cc1 = active
• COc1ccc2cc3[n+](cc2c1OC)CCc1cc2c(cc1-3)OCO2 = active
• Cc1cnc(Nc2ccc(CN3CCOCC3)cc2)nc1Nc1cccc(S(=O)(=O)NC(C)(C)C)c1 = active
• CC[C@]1(O)C[C@H]2CN(CCc3c([nH]c4ccccc34)[C@@](C(=O)OC)(c3cc4c(cc3OC)N(C=O)[C@H]3[C@@](O)(C(=O)OC)[C@H](OC(C)=O)[C@]5(CC)C=CCN6CC[C@]43[C@@H]65)C2)C1 = active

// query Lab log entry: CC(=O)OC12COC1CC(O)C1(C)C(=O)C(O)C3=C(C)C(OC(=O)C(O)C(NC(=O)OC(C)(C)C)c4ccccc4)CC(O)(C(OC(=O)c4ccccc4)C21)C3(C)C (centres undefined) — outcome as called in the assay?
// result active

// query Tell me the recorded outcome of this test for CC(C)n1c(/C=C/[C@@H](O)C[C@@H](O)CC(=O)O)c(-c2ccc(F)cc2)c2ccccc21 .
// result active

// query Tell me the assay call for CCN(CC)CCCC(C)Nc1ccnc2cc(Cl)ccc12 (centres undefined) please.
// result inactive

// query Recorded test outcome, item COC(=O)c1ccc2c(C(=Nc3ccc(N(C)C(=O)CN4CCN(C)CC4)cc3)c3ccccc3)c(O)[nH]c2c1
// result inactive

###

System: Jar
Assay: Confirmatory qHTS for gynecologic anti-cancer compounds from libraries of approved drugs and bioactive compounds; also: nearly all actives have a fitted effect of over 55% in size; also: potency is read from the fitted curve at half-maximal effect
Conditions: gynecologic cancer cell panel viability, ATPlite luminescence, 48 h; series mostly up to 57.6 µM
Results filed as inconclusive are left out. Activity calls are given as the source filed them. Calls follow the shape of the dose curve; as a rule, active = well fitted cell-killing curve with a large enough effect; inconclusive = small, poorly fitted or top-dose-only effect, or effect the other way; inactive = no such curve, though single readings can be large or run the other way.
Recorded Potency by entry

- O=C(c1ccc(/C=C/c2n[nH]c3ccccc23)cc1)N1CCNCC1: 30.6 µM (active)
- Nc1ccc(-c2ccc3ncc4ccc(=O)n(-c5cccc(C(F)(F)F)c5)c4c3c2)cn1: 1.22 µM (active)

Moving on to another compound below.
// query Read the entry Cc1cnc(Nc2cccc(CN3CCOCC3)c2)nc1Nc1cccc(S(=O)(=O)NC(C)(C)C)c1 and write its reported Potency.
// result 21.7 µM (active)

###

Test system: Jar
Assay: Confirmatory qHTS for gynecologic anti-cancer compounds from libraries of approved drugs and bioactive compounds; also: nearly all actives have a fitted effect of over 55% in size
Conditions: gynecologic cancer cell panel viability, ATPlite luminescence, 48 h; series mostly up to 57.6 µM
Inconclusive results are not listed. Calls of active or inactive are those of the source. Calls follow the shape of the dose curve; as a rule, active = well fitted cell-killing curve with a large enough effect; inconclusive = small, poorly fitted or top-dose-only effect, or effect the other way; inactive = no such curve, though single readings can be large or run the other way.
Hi! Could you answer with just one of these? active, inactive

Some solved entries appear below for comparison.
• CO[C@@]12[C@H](COC(N)=O)C3=C(C(=O)C(C)=C(N)C3=O)N1C[C@@H]1N[C@@H]12 = inactive
• c1nc2nc(Nc3ccc(N4CCOCC4)cc3)nc(NC3CCCCC3)c2[nH]1 = active
• C[C@@H](Oc1cc(-c2cnn(C3CCNCC3)c2)cnc1N)c1c(Cl)ccc(F)c1Cl = active
• CC(=O)O[C@H]1C(=O)[C@@]2(C)[C@H]([C@H](OC(=O)c3ccccc3)[C@]3(O)C[C@H](OC(=O)[C@H](O)[C@@H](NC(=O)c4ccccc4)c4ccccc4)C(C)=C1C3(C)C)[C@]1(OC(C)=O)CO[C@@H]1C[C@@H]2O = active
• NC(=O)c1cccc2cn(-c3ccc([C@@H]4CCCNC4)cc3)nc12 = inactive
• Cc1csc(NC(=O)c2sc3nc4c(c(C(F)(F)F)c3c2N)CCC4)n1 = active
• CN(C)CC/C=C1\c2ccccc2COc2ccccc21 = inactive
• NC(=O)c1cnc(-c2ccc(C3(N)CCC3)cc2)c(-c2ccccc2)c1 = active

Read the next record carefully.
// query Look up the recorded call for CCC(=O)N1CCN(c2ccc(-n3c(=O)ccc4cnc5ccc(-c6cnc7ccccc7c6)cc5c43)cc2C(F)(F)F)CC1 in this test.
// result active
